Where these numbers come from: patent US9434711B2

Target: canine TRPM8 (Canis lupus familiaris)
Sequence (Q1A7N1 1-1104): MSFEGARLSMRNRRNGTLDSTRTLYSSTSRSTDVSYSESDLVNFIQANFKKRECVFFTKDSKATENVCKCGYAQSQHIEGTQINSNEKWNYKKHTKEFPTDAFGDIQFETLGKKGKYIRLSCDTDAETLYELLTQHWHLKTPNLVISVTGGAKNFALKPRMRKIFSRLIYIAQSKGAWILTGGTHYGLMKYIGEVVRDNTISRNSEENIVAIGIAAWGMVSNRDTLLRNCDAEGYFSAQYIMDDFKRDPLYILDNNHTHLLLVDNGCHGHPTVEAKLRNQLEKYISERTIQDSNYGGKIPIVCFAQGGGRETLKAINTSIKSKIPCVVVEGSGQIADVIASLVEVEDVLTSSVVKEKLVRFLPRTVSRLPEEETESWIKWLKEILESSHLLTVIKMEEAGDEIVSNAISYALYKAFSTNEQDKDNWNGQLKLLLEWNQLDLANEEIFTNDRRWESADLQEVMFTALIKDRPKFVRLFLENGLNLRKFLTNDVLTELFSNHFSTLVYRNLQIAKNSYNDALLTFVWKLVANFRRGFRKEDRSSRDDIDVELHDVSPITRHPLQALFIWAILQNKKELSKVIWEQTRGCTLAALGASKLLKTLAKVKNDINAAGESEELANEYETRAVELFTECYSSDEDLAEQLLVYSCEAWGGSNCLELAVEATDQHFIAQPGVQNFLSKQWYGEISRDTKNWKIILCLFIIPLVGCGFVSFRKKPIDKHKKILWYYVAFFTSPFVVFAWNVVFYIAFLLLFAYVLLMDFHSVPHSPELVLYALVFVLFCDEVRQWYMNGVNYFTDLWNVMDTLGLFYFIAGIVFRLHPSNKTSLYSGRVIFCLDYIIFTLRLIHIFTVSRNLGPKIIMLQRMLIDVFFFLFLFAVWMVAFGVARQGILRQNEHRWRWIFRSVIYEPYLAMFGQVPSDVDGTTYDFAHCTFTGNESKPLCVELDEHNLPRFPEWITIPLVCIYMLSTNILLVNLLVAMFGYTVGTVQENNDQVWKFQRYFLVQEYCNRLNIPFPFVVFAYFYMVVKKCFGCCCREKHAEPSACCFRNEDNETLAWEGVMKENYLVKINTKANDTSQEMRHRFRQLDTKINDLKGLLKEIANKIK
Assay: In Vitro Canine TRPM8 Functional Assay (Ca2+ fluorescence, icilin activation)
Assay type: cell-based
Settings: HEK293 cells stably expressing canine TRPM8; icilin activation; eight-point dose-response; read-out: IC50
reported-property: IC50 (µM)

INSERT INTO assay_data (compound, target_desc, value_measured) VALUES
  ('O=S1(=O)C(N(CCC2CC2)S(=O)(=O)c2ccccc2)=C(Br)c2ccccc21 [Compound 577]', 'canine TRPM8 (Canis lupus familiaris)', 0.0078),
  ('Cc1c(N(Cc2ccc(F)c(C(F)(F)F)c2)S(=O)(=O)c2cn(C)nc2C(F)(F)F)sc2ccccc12 [Compound 328]', 'canine TRPM8 (Canis lupus familiaris)', 0.035),
  ('CN1CCC[C@H]1CN(c1sc2ccccc2c1Br)S(=O)(=O)c1ccccc1 [Compound 241]', 'canine TRPM8 (Canis lupus familiaris)', 0.106),
  ('Cc1c(N(CCC(F)(F)F)S(=O)(=O)c2ccc(-c3nnn[nH]3)cc2)sc2ccccc12 [Compound 572]', 'canine TRPM8 (Canis lupus familiaris)', 0.0166),
  ('CCCCN(c1sc2ccccc2c1Cl)S(=O)(=O)c1ccc(N(C)C)cc1 [Compound 561]', 'canine TRPM8 (Canis lupus familiaris)', 0.0284);

A: O=C(O)c1cccc(S(=O)(=O)N(Cc2ccc(F)c(C(F)(F)F)c2)c2sc3ccccc3c2Cl)c1 [Compound 307]
B: Nc1ccc(S(=O)(=O)N(CCC(F)(F)F)c2sc3ccccc3c2Cl)cc1 [Compound 585]
Pick the one with the larger IC50: A vs B Answer with the label corresponding to your selection. A
(A: 0.0151 µM, B: 0.0064 µM)

1: CCCCS(=O)(=O)N(Cc1ccc(F)c(F)c1)c1sc2ccccc2c1Br [Compound 154]
2: O=S1(=O)C(N(Cc2ccc(F)c(C(F)(F)F)c2)S(=O)(=O)c2ccccc2)=Cc2ccccc21 [Compound 421]
Pick the one with the larger IC50: 1 vs 2 Answer with the label corresponding to your selection. 2
(2: 0.064 µM, 1: 0.0362 µM)
